Tested on: HepG2 cells
assay.details: HepG2 cytotoxicity counter-screen
experimental.context: cytotoxic activity against HepG2 cells
endpoint.name: log10(Tox50) (log10 of the value in µM)
For clarity, the numbers are log10 values of Tox50 expressed in µM.

# input molecule: CCC1CN2CCc3cc(OC)c(OC)cc3C2CC1CC1NCCc2cc(OC)c(OC)cc21.Cl (stereo not drawn) [TCMDC-125849] ; wanted: its log10(Tox50)
1.44

Entry to check: N=C(N)Nc1nc(-c2ccc(NCc3ccc(CNc4cccc(-c5csc(NC(=N)N)n5)c4)cc3)cc2)cs1 [TCMDC-140699]
0.77

Entry to check: Nc1nc(N)c2c(ccc3[nH]c(-c4ccccc4Cl)nc32)n1 [TCMDC-137840]
0.31

Entry to check: CNC(=O)c1ccccc1Nc1nc(Nc2ccc(CCN3CCN(C)CC3)cc2)ncc1Cl.Cl [TCMDC-133800]
-0.48

Entry to check: CC(C)(CNC(=O)[C@H]1CCCCN1)c1nc(-c2ccc(Cl)c(O)c2)c(-c2ccncc2)[nH]1.Cl [TCMDC-141070]
1.72

Entry to check: Br.CC[C@H]1CN2CCc3cc(OC)c(OC)cc3[C@@H]2C[C@@H]1C[C@H]1NCCc2c1cc(OC)c(O)c2I [TCMDC-131829]
0.80

Entry to check: COc1ccc(NC(=O)c2cccc(Br)c2)cc1N1CCN(CCCCCCCN2CCN(c3cc(NC(=O)c4cccc(Br)c4)ccc3OC)CC2)CC1.Cl [TCMDC-139020]
0.90

Entry to check: CN(C)CCOc1ccc(NC(=O)NC(C)(C)c2nc(-c3ccc(Cl)c(O)c3)c(-c3ccncc3)[nH]2)cc1.Cl [TCMDC-140744]
1.47

Entry to check: CNCCNCc1ccc(-c2ccc(-c3nc4cccc(C)c4[nH]3)cc2)cc1.O=C(O)C(F)(F)F [TCMDC-132837]
1.12

Entry to check: CN(C)CCN(C)Cc1ccc(-c2ccc3c(Nc4ccc(Oc5ccccc5)cc4)ccnc3c2)o1 [TCMDC-138400]
0.54

Entry to check: FC(F)(F)c1ccc2[nH]c(-c3ccc(-c4cccc(CNCCN5CCNCC5)c4)cc3)nc2c1.O=C(O)C(F)(F)F [TCMDC-132864]
1.31

Entry to check: CS(=O)(=O)O.FC(F)(F)COc1c(CNCCCCCCNCc2ccc3ccccc3c2OCC(F)(F)F)ccc2ccccc12 [TCMDC-137833]
0.52

Entry to check: CN(CCCNCc1ccc2ccccc2c1)CCCNCc1ccc2ccccc2c1.Cl [TCMDC-137908]
0.61

Entry to check: COc1ccc(NC(=O)c2ccc(OCCCCCCCOc3ccc(C(=O)Nc4ccc(OC)c(N5CCN(C)CC5)c4)cc3)cc2)cc1N1CCN(C)CC1.O=C(O)C(=O)O [TCMDC-139007]
0.60

Entry to check: CC(C)(C)c1ccc(CNC(=O)c2ccc(CNC3CCC(N)CC3)s2)cc1 (stereo not drawn) [TCMDC-140777]
0.97

Entry to check: C#CCCOc1ccc2ccccc2c1CNCCCCCCNCc1c(OCCC#C)ccc2ccccc12 [TCMDC-137832]
0.60

Entry to check: CC(=NNC(=S)NCCc1ccccn1)c1ccccn1 [TCMDC-137895]
0.06

Entry to check: CNCCNCc1ccc(-c2ccc(-c3nc4cc(C(F)(F)F)ccc4[nH]3)s2)cc1.O=C(O)C(F)(F)F [TCMDC-132838]
1.12

Entry to check: Cl.c1ccc2c(NCCCCCCCCCNc3c4ccccc4nc4ccccc34)c3ccccc3nc2c1 [TCMDC-124286]
0.80

Entry to check: CCc1c(CCNCCCC(C)CCNCCc2ccc(OC)c(OC)c2CC)ccc(OC)c1OC.Cl (stereo not drawn) [TCMDC-132065]
0.59

Entry to check: CCN(CC)CCOc1ccc(Nc2ncc3cc(-c4c(Cl)cccc4Cl)c(=O)n(C)c3n2)cc1 [TCMDC-140940]
0.42

Entry to check: C=CCN(C(=O)c1ccc(Cl)c([N+](=O)[O-])c1)c1nc(-c2ccccc2)cs1 [TCMDC-124436]
1.44

Entry to check: FC(F)(F)c1ccc2[nH]c(-c3cccc(-c4cccc(CNCCN5CCNCC5)c4)c3)nc2c1.O=C(O)C(F)(F)F [TCMDC-132871]
1.01

Entry to check: Br.c1cc(Nc2nc(-c3ccc(-c4csc(Nc5ccncc5)n4)cc3)cs2)ccn1 [TCMDC-139725]
0.66

Entry to check: COc1cccc(CCc2c(CCNCCCCCCNCCc3ccccc3)ccc(OC)c2OC)c1.Cl [TCMDC-132105]
0.45

Entry to check: COc1ccc2c(OC)c(CNCCCCCCNCc3ccc4cc(OC)ccc4c3OC)ccc2c1.CS(=O)(=O)O [TCMDC-137953]
0.57

Entry to check: COc1ccc(Nc2ncc(Cl)c(Nc3cccnc3C(N)=O)n2)cc1N1CCN(C)CC1.Cl [TCMDC-134163]
0.47

Entry to check: CCCCCCC(N)c1ccc(OCCCOc2ccc(C(N)CCCCCC)cc2)cc1.Cl (stereo not drawn) [TCMDC-137621]
0.55

Entry to check: COc1ccc2c(CNCCCCCCNCc3c(OC)ccc4cc(OC)ccc34)c(OC)ccc2c1.CS(=O)(=O)O [TCMDC-137300]
0.56

Entry to check: CN1CCN(c2ccc(Nc3ncc(Cl)c(Nc4cccnc4C(N)=O)n3)cc2)CC1.Cl [TCMDC-134164]
0.80

###

System: P. falciparum female gametocytes
assay.details: P. falciparum Dual Gamete Formation Assay (PfDGFA), female readout (Pfs25-positive female gametes)
Assay type: cell-based, Plasmodium falciparum NF54
experimental.context: Plasmodium falciparum; 2µM, 24h preincubation with gametocytes; replicate R3; read-out: % inhibition female (individual replicates) R3
I'd appreciate it if you could supply inhibition at 2 µM values for the items below.
Answer by giving the amount and then stating its unit.

# input molecule: Cl.O=C1Nc2ccc3ncccc3c2/C1=C/Nc1ccc(N2CCN(CCO)CC2)cc1 ; wanted: its inhibition at 2 µM
-18.8%

Entry to check: CCN(CC)CCN(Cc1ccc(-c2ccc(C(F)(F)F)cc2)cc1)C(=O)Cn1cc(Cc2cnn(C)c2)c(=O)nc1/C=C/c1cccc(F)c1F.O=C(O)C(O)C(O)C(=O)O
28.7%

Entry to check: O=C1SC(=Cc2ccc(O)c(O)c2)C(=O)N1c1ccccc1
26.8%

Entry to check: CNC(=O)c1ccccc1Nc1nc(Nc2ccc(N3CCN(C)CC3)nc2)ncc1C.Cl
9.7%

Entry to check: [O-][s+]1c(Cl)c(-c2ccc(Cl)cc2)c2ccc(Cl)cc21 (stereo not drawn)
37%

Entry to check: c1ccc2sc(Sc3ncnc4sccc34)nc2c1
35.1%

Entry to check: O=C(C1CC1)N1c2ccccc2CCc2ccccc21
22.7%

Entry to check: CN1CCN(CCCNCc2cccc(-c3ccc(CNCCc4ccccc4)cc3)c2)CC1.O=C(O)C(F)(F)F
25.8%

Entry to check: O=C1Nc2ccccc2C1=NNC(=S)N1CCOCC1
48.4%

Entry to check: COc1ccc(Nc2ncc(C#N)c(Nc3ccccc3C(N)=O)n2)cc1N1CCN(C)CC1.Cl
-13.1%

Entry to check: CC(C)(C)c1ccc(-c2nc3c(ccc4nc(N)nc(N)c43)[nH]2)cc1.Cl
42.4%

Entry to check: CN1CCN(c2ccc(Nc3ncc(C#N)c(Nc4ccccc4C(N)=O)n3)cc2)CC1.Cl
-11.3%

Entry to check: c1ccc(-c2nc(Nc3nc4ccccc4[nH]3)[nH]c2-c2ccccc2)cc1
46.9%

Entry to check: COc1ccc2nc(N=C3NC4(c5ccccc5)NC(=Nc5nc6ccc(OC)cc6[nH]5)NC4(c4ccccc4)N3)[nH]c2c1.O=C(O)C(F)(F)F (stereo not drawn)
10.6%

Entry to check: O=c1c(Br)ccccc1Br
103%

###

I'd appreciate it if you could supply Average inhibition male (%) values for the items below.
Test system: P. falciparum male gametocytes
assay.details: P. falciparum Dual Gamete Formation Assay (PfDGFA), male readout (exflagellation)
Type: cell-based, Plasmodium falciparum NF54
experimental.context: 2µM, 24h preincubation with gametocytes prior to induction of gametogenesis; average of replicates
Enter your answer as a number in %; do not include the unit.

# input compound: CN(C)Cc1ccc(-c2ccc(NC(=O)c3ccc4c(=O)n(Cc5ccccc5)cnc4c3)cc2)cc1 [TCMDC-132361] ; wanted: its Average inhibition male (%)
62.7

Entry to check: COc1ccc(CCNCCCCCCNCCc2ccc(Cl)c(Cl)c2)cc1OC.Cl [TCMDC-131275]
39.4

Entry to check: NS(=O)(=O)c1cccc(Nc2nc(N[C@@H]3CCNC3)nc3cc[nH]c(=O)c23)c1.O=C(O)C(F)(F)F [TCMDC-135057]
-3.6

Entry to check: Br.CCCC1N=C(N)N=C(N)N1c1ccc(CC)cc1 (centres unmarked) [TCMDC-131300]
-2.2

Entry to check: COc1cccc(OC)c1CN1CCC(N(C)CCCCCCCCN2CCC(OC(=O)Nc3ccccc3-c3ccccc3)CC2)CC1 [TCMDC-134684]
52.6

Entry to check: CCc1ccc(N2C(N)=NC(N)=NC2(C)C)cc1.Cl [TCMDC-137714]
9.1

Entry to check: CC1(C)N=C(N)N=C(N)N1c1ccc(Oc2ccc(Cl)cc2)c(Cl)c1 [TCMDC-123522]
-4.1

Entry to check: COc1ccc(CCNCCCCCCNCCCc2ccc(Cl)cc2)cc1OC.Cl [TCMDC-131280]
28.8
